// data source = ChEMBL document CHEMBL3817825

- Tested on: Staphylococcus aureus
- TEST DETAILS: Antibacterial activity against Staphylococcus aureus ATCC25923 after 24 hrs by two fold serial dilution method
- Format: functional
- ASSAY CONDITIONS: ATCC25923, 24 h
Recorded MIC, one value per entry.
TEST READOUT: MIC (µM)

>>> observed("CCCCc1nc(Cl)c(/C=N/N2C(=O)c3cccc4c(N5CCCC5)ccc(c34)C2=O)[nH]1")
570
>>> observed("CCCCc1nc(Cl)c(/C=N/N2C(=O)c3cccc4c(N5CCOCC5)ccc(c34)C2=O)n1Cc1ccc(OC)cc1")
440
>>> observed("CCn1cc(C(=O)O)c(=O)c2cc(F)c(N3CCNCC3)cc21")
6
>>> observed("CCCCc1nc(Cl)c(/C=N/N2C(=O)c3cccc4c(N5CCOCC5)ccc(c34)C2=O)n1Cc1ccc(F)cc1")
890
>>> observed("CCCCc1nc(Cl)c(/C=N/N2C(=O)c3cccc4c(N5CCOCC5)ccc(c34)C2=O)[nH]1")
270
>>> observed("CCCCc1nc(Cl)c(/C=N/N2C(=O)c3cccc4c(N5CCOCC5)ccc(c34)C2=O)n1Cc1ccc(C)cc1")
220
